Format: physicochemical
Conditions: solid salt storage, 1440 h
metricName: degradation at 45° C. after 60 days (%)
Your answer should be a plain number; it is taken to be in %.

C[S+](CCC(N)C(=O)[O-])CC1OC(n2cnc3c(N)ncnc32)C(O)C1O (stereo not drawn) [SAM.6HCl.0.7H2 O]: 5
C[S+](CCC(N)C(=O)[O-])CC1OC(n2cnc3c(N)ncnc32)C(O)C1O (stereo not drawn) [SAM.nH2 SO4, n=1, reference compound]: 80
C[S+](CCC(N)C(=O)[O-])CC1OC(n2cnc3c(N)ncnc32)C(O)C1O (stereo not drawn) [SAM.nH2 SO4, n=0.5, reference compound]: 100
C[S+](CCC(N)C(=O)[O-])CC1OC(n2cnc3c(N)ncnc32)C(O)C1O (stereo not drawn) [SAM.1.5H2 SO4.nHCl, n=3]: 5
C[S+](CCC(N)C(=O)[O-])CC1OC(n2cnc3c(N)ncnc32)C(O)C1O (stereo not drawn) [SAM.nHCl, n=1, reference compound]: 100

Data request, read-out degradation at 45° C. after 60 days, for C[S+](CCC(N)C(=O)[O-])CC1OC(n2cnc3c(N)ncnc32)C(O)C1O (stereo not drawn) [SAM.3H2 SO4.0.7H2 O] 5

Data request, read-out degradation at 45° C. after 60 days, for C[S+](CCC(N)C(=O)[O-])CC1OC(n2cnc3c(N)ncnc32)C(O)C1O (stereo not drawn) [SAM.2HCl.nH2 SO4, n=2] 5

Data request, read-out degradation at 45° C. after 60 days, for C[S+](CCC(N)C(=O)[O-])CC1OC(n2cnc3c(N)ncnc32)C(O)C1O (stereo not drawn) [SAM.1.5H2 SO4.nHCl, n=1] 5

Data request, read-out degradation at 45° C. after 60 days, for C[S+](CCC(N)C(=O)[O-])CC1OC(n2cnc3c(N)ncnc32)C(O)C1O (stereo not drawn) [SAM.2HCl.nH2 SO4, n=1] 5

Data request, read-out degradation at 45° C. after 60 days, for C[S+](CCC(N)C(=O)[O-])CC1OC(n2cnc3c(N)ncnc32)C(O)C1O (stereo not drawn) [SAM.nHCl, n=2, reference compound] 80

Data request, read-out degradation at 45° C. after 60 days, for C[S+](CCC(N)C(=O)[O-])CC1OC(n2cnc3c(N)ncnc32)C(O)C1O (stereo not drawn) [SAM.2HCl.nH2 SO4, n=0.5, reference compound] 30

Data request, read-out degradation at 45° C. after 60 days, for C[S+](CCC(N)C(=O)[O-])CC1OC(n2cnc3c(N)ncnc32)C(O)C1O (stereo not drawn) [SAM.nHCl, n=3, reference compound] 30

Data request, read-out degradation at 45° C. after 60 days, for C[S+](CCC(N)C(=O)[O-])CC1OC(n2cnc3c(N)ncnc32)C(O)C1O (stereo not drawn) [SAM.nH2 SO4, n=1.5, reference compound] 30

Data request, read-out degradation at 45° C. after 60 days, for C[S+](CCC(N)C(=O)[O-])CC1OC(n2cnc3c(N)ncnc32)C(O)C1O (stereo not drawn) [SAM.4HCl.0.4H2 O] 5

Data request, read-out degradation at 45° C. after 60 days, for C[S+](CCC(N)C(=O)[O-])CC1OC(n2cnc3c(N)ncnc32)C(O)C1O (stereo not drawn) [SAM.2H2 SO4.0.4H2 O] 5

Taken from patent US4543408A.
